# study-system: human melanocortin-4 receptor (human, UniProt P32245 1-332)
# Sequence (P32245 whole entry): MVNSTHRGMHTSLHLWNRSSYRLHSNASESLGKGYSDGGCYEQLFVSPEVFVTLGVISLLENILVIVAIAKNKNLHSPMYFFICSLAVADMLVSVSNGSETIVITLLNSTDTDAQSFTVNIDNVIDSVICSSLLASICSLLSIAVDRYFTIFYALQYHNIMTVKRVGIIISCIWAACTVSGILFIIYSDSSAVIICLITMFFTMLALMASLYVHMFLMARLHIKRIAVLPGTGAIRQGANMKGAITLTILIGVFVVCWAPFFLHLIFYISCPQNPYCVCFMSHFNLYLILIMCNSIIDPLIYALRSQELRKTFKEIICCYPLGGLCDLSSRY
# assay-explanation: cell-based or functional assay
Positions of bridges follow the written chain, without caps; N, C: chain ends. Non-standard residues stand in square brackets, D forms with d. dPhe(3,4,5-F3) = N[C@H](Cc1cc(F)c(F)c(F)c1)C(=O)O; dPhe(4-F) = N[C@H](Cc1ccc(F)cc1)C(=O)O; dPhe(2-F) = N[C@H](Cc1ccccc1F)C(=O)O; Orn = NCCC[C@H](N)C(=O)O
Would you kindly list Intrinsic Activity, cAMP, 10 ng/mL Doxycycline for each of these binders?
Numbers only, in %.

Solved entries (count: 3):
>>> assay_value("XDQXRWK (N-terminal Ac; D-Arg 1; D-Phe(4-F) 4; lactam Asp 2-Lys 7; C-terminal NH2, also called No. 83) [Ac-D-Arg-cyclo(Asp-Gln-D-Phe(4-F)-Arg-Trp-Lys)-NH2]")
94
>>> assay_value("Ac-RES[dPhe(4-F)]RW[Orn]-NH2 (lactam 2-7; SMILES CC(=O)N[C@@H](CCCNC(=N)N)C(=O)N[C@H]1CCC(=O)NCCC[C@@H](C(N)=O)NC(=O)[C@H](Cc2c[nH]c3ccccc23)NC(=O)[C@H](CCCNC(=N)N)NC(=O)[C@@H](Cc2ccc(F)cc2)NC(=O)[C@H](CO)NC1=O, also called No. 65) [Ac-Arg-cyclo(Glu-Ser-D-Phe(4-F)-Arg-Trp-Orn)-NH2]")
93
>>> assay_value("Ac-R[Orn]P[dPhe(2-F)]RWE-NH2 (lactam 2-7; SMILES CC(=O)N[C@@H](CCCNC(=N)N)C(=O)N[C@H]1CCCNC(=O)CC[C@@H](C(N)=O)NC(=O)[C@H](Cc2c[nH]c3ccccc23)NC(=O)[C@H](CCCNC(=N)N)NC(=O)[C@@H](Cc2ccccc2F)NC(=O)[C@@H]2CCCN2C1=O) [Ac-Arg-cyclo(Orn-Pro-D-Phe(2-F)-Arg-Trp-Glu)-NH2]")
94

We now examine a further binder.
Report Intrinsic Activity, cAMP, 10 ng/mL Doxycycline for Ac-R[Orn]Q[dPhe(3,4,5-F3)]RWE-NH2 (lactam 2-7) [Ac-Arg-cyclo(Orn-Gln-D-Phe(3,4,5-triF)-Arg-Trp-Glu)-NH2] please.
100
